Biological target: T1, LSF (Late SV40 factor 3) (human, UniProt Q12800 1-502)
T1 sequence: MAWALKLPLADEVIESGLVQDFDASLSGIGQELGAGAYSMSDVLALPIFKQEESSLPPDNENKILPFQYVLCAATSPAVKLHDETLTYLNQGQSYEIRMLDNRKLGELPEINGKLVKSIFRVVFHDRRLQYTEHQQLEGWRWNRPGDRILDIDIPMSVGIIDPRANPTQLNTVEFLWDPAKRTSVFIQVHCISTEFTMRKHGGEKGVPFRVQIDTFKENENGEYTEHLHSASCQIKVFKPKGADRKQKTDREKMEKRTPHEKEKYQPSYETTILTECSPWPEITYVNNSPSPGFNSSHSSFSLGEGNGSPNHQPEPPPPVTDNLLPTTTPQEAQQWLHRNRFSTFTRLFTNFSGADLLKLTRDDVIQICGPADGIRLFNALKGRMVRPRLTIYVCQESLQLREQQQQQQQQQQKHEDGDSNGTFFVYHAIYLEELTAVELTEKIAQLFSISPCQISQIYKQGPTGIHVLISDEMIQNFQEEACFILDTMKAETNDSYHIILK
Experiment: EMSA; LightShift Chemiluminescent EMSA kit per manufacturer; 7% PAGE in 0.5x TBE; binding buffer, pH and temperature not stated
Conditions: protein: ivt; tags: FLAG; chain copies: 4; label: biotin end label; 5' overhangs 4 nt on both strands
measured.parameter: binding result

Some solved entries appear below for comparison.
binder: p21 promoter #2 (dsDNA) DNA 1: GCTGGAACTCGGCCAGGCTCAGCTGGCTCGG DNA 2: AGCGCCGAGCCAGCTGAGCCTGGCCGAGTTC
binding result: binds

binder: p21 promoter #4 mutant (dsDNA) DNA 1: GCCTCCTTGAGTAGGTCCCGGTAGGTGCGGT DNA 2: TACAACCGCACCTACCGGGACCTACTCAAGG
binding result: no binding

binder: p21 promoter #1 mutant (dsDNA) DNA 1: GCACGCGAGGTTACGTGACCGTATGTCCTGC DNA 2: TCCAGCAGGACATACGGTCACGTAACCTCGC
binding result: no binding

binder: p21 promoter #1 (dsDNA) DNA 1: GCACGCGAGGTTCCGGGACCGGCTGGCCTGC DNA 2: TCCAGCAGGCCAGCCGGTCCCGGAACCTCGC
binding result: binds

Consider now this further binder.
Request: Need binding result, item p21 promoter #4 (dsDNA) DNA 1: GCCTCCTTGAGGCGGGCCCGGGCGGGGCGGT DNA 2: TACAACCGCCCCGCCCGGGCCCGCCTCAAGG
Result: binds
